- Test system: 817829-284-R-J1-PDC complex spheroid viability;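 further: spheroids exposed to compounds for 7 days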
- Assay overview: Anticancer human tumor 817829-284-R-J1-PDC patient-derived colon adenocarcinoma cell line growth inhibition [POLQ]; active means viability on the fitted dose curve at most 10% of control; inactive means the rest
- Run parameters: second compound 0.316 µM; first compound 3.16 µM
Possible outcomes: t = active, f = inactive

* Nc1ccn(C2OC(CO)C(O)C2(F)F)c(=O)n1 (stereo unspecified) + Cc1cccc(N(C)C(=O)C2C(O)CCN2c2nc(C)cc(C(F)(F)F)c2C#N)c1 | t
* COc1ccc([C@@H](O)c2cc(-c3ncnc4cc(N5CCOCC5)ccc34)c(F)cc2Cl)nn1 + Nc1ccc(C#CCN(C(=O)Cc2ncc(C(F)(F)F)cc2C(F)(F)F)c2ccc(F)cc2)nn1 | f
* O=C(Nc1ccc(O)c(NS(=O)(=O)c2ccc(F)cc2)c1)c1ccc(-c2ccccc2)cc1 + Nc1ccc(C#CCN(C(=O)Cc2ncc(C(F)(F)F)cc2C(F)(F)F)c2ccc(F)cc2)nn1 | f
* CCc1cc2c(N3CCc4c(cc(Cn5ccnc5)cc4-c4cn(C)nc4C(F)(F)F)C3=O)ccnc2c(OC)n1 + COC1C(OC(N)=O)C(O)C(Oc2ccc3c(O)c(NC(=O)c4ccc(O)c(CC=C(C)C)c4)c(=O)oc3c2C)OC1(C)C | f
* COc1cc(C2c3cc4c(cc3C(OC3OC5COC(C)OC5C(O)C3O)C3COC(=O)C23)OCO4)cc(OC)c1O (stereo unspecified) + Nc1ccc(C#CCN(C(=O)Cc2ncc(C(F)(F)F)cc2C(F)(F)F)c2ccc(F)cc2)nn1 | f
* O=C(c1cc(Cc2n[nH]c(=O)c3ccccc23)ccc1F)N1CCN(C(=O)C2CC2)CC1 + COC1C(OC(N)=O)C(O)C(Oc2ccc3c(O)c(NC(=O)c4ccc(O)c(CC=C(C)C)c4)c(=O)oc3c2C)OC1(C)C | f
